- experimental.details: Selectivity ratio of IC50 for cathepsin D to IC50 for BACE1
Is Ratio IC50 at least 6? Then true. If not, false.

{"smiles.record": "CC(=O)N[C@@H](Cc1cc(F)cc(F)c1)[C@H](O)CN[C@H]1CC2(CCC2)Oc2ncc(CC(C)(C)C)cc21", "qualitative.label": "false"}
{"smiles.record": "CC(=O)N[C@@H](Cc1cccc(F)c1)[C@H](O)CN[C@H]1CC2(CCC2)Oc2ncc(CC(C)(C)C)cc21", "qualitative.label": "false"}
{"smiles.record": "CC(=O)N[C@@H](Cc1ccc(F)cc1)[C@H](O)CN[C@H]1C[C@]2(C[C@@H](O)C2)Oc2ncc(CC(C)(C)C)cc21", "qualitative.label": "true"}
{"smiles.record": "CC(=O)N[C@@H](Cc1ccc(F)cc1)[C@H](O)CN[C@H]1CC2(CCC2)Oc2ncc(CC(C)(C)C)cc21", "qualitative.label": "false"}
{"smiles.record": "CC(=O)N[C@@H](Cc1ccc(F)cc1)[C@H](O)CN[C@H]1C[C@]2(C[C@@H](F)C2)Oc2ncc(CC(C)(C)C)cc21", "qualitative.label": "false"}
{"smiles.record": "CC(=O)N[C@@H](Cc1ccc(F)c(F)c1)[C@H](O)CN[C@H]1C[C@]2(C[C@H](C)C2)Oc2ncc(CC(C)(C)C)cc21", "qualitative.label": "true"}
